# Assayed target: IDO1 (Homo sapiens, UniProt P14902)
# Sequence (P14902 whole entry): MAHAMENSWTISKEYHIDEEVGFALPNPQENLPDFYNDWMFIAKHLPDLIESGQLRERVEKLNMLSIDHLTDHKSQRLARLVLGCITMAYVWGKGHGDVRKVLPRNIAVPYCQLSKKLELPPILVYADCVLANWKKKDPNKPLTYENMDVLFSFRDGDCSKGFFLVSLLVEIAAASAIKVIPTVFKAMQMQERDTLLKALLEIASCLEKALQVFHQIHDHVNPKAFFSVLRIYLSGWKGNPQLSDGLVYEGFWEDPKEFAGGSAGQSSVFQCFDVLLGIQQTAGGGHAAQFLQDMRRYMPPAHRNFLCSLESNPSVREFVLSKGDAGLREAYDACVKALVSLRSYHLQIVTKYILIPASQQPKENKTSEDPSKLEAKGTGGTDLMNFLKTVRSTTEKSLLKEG
# Method summary: Hela cell-based IDO1 assay
# Condition context: Hela cells
The entries below come with measured EC50 values attached.
Numeric only. Scale: nM

OC(c1c(C2CC2)ccc2cncn12)C1CCN(c2ccc3ncncc3c2)CC1 (stereo not drawn) [Example D181] : 1020

Lab note: measured EC50 of OC(c1c(C2CC2)ccc2cncn12)[C@H]1CC[C@H](c2ccc(C(F)(F)F)nc2)CC1 (single isomer, unassigned) [Example D107a] was 1260

Lab note: measured EC50 of O[C@H](c1cc(Cl)cc2cncn12)[C@H]1CC[C@H](c2cccc3ccccc32)CC1 (single isomer, unassigned) [Example E103a] was 777

---

# Assayed target: IDO1 (Homo sapiens)
# Method summary: IDO1 enzymatic assay
# Type: biochemical
# Design: His tag (N); made in house; host or cells: E. coli
# Condition context: read-out: Enzyme IC50 IDO1
Measured endpoint: IC50 (nM)
Numeric only. Scale: nM

Use these answered entries as a reference point.
O[C@H](c1c(C2CC2)ccn2cncc12)[C@H]1CC[C@H](c2cccc3ncccc32)CC1 (single isomer, unassigned) [Example C126a] : 16
OC(c1c(C2CC2)ccn2cncc12)C1CCC(c2ccc(F)c(Cl)c2)CC1 (stereo not drawn) : 120

// next item, IC50 requested
Entry O[C@@H](c1c(C2CC2)ccc2cncn12)[C@H]1CC[C@H](c2ccc(F)cc2)CC1 (single isomer, unassigned) [Example D104b] , IDO1 (Homo sapiens) data, IC50 value: 9900

---

# Assayed target: IDO1 (Homo sapiens)
# Method summary: Hela cell-based IDO1 assay
# Condition context: Hela cells
The entries below come with measured EC50 values attached.
Numeric only. Scale: nM

Use these answered entries as a reference point.
O[C@H](c1c(C2CC2)ccc2cncn12)[C@H]1CC[C@H](c2ccc(F)cc2F)CC1 (single isomer, unassigned) [Example D127a] : 83
O[C@H](c1c(C2CC2)ccn2cncc12)[C@H]1CC[C@H](c2ccc(F)cc2)CC1 (single isomer, unassigned) [Example C107a] : 109

// next item, EC50 requested
Lab note: measured EC50 of OC(c1c(C2CC2)ccn2cncc12)C1CCC(c2ccnc3ccccc23)CC1 (stereo not drawn) was 93

---

# Assayed target: UniProt:P14902
# Method summary: Hela cell-based IDO1 assay
# Condition context: Hela cells
Measured endpoint: EC50 (µM)
Numeric only. Scale: µM

Use these answered entries as a reference point.
OC(c1c(C2CC2)ccc2cncn12)C1CCC(c2ccccc2)CC1 (stereo not shown) : 0.1
OC(c1c(C2CC2)ccc2cncn12)[C@H]1CC[C@H](c2cccc(F)c2F)CC1 (single isomer, unassigned) [Example D132a] : 0.113
O[C@H](c1c(C2CC2)ccn2cncc12)[C@H]1CC[C@H](c2ccc(OC3CCCC3)cc2)CC1 (single isomer, unassigned) [Example C118a] : 0.147

// next item, EC50 requested
Lab note: measured EC50 of OC(c1c(C2CC2)ccn2cncc12)C1CCN(c2ccc(F)c3cccnc23)CC1 (stereo not shown) [Example C155] was 0.149

---

# Assayed target: IDO1 (Homo sapiens)
# Method summary: Hela cell-based IDO1 assay
# Condition context: Hela cells
EC50 strictly less than 100 nM = label 1. Otherwise label 0.

Answered examples (5):
COc1cccc([C@H]2CC[C@H]([C@@H](O)c3c(C4CC4)ccn4cncc34)CC2)c1 (single isomer, unassigned) [Example C114b] : label 0
OC(c1c(C2CC2)ccc2cncn12)C1CCC(c2ccc(F)c(Cl)c2)CC1 (centres unmarked) [Example D129] : label 0
O[C@H](c1c(C2CC2)ccn2cncc12)[C@H]1CC[C@H](c2ccccc2F)CC1 (single isomer, unassigned) [Example C108a] : label 0
CN(C)C(=O)c1ccc(C2CCC(C(O)c3c(C4CC4)ccc4cncn34)CC2)cc1 (centres unmarked) [Example D125] : label 0
O[C@H](c1c(C2CC2)ccc2cncn12)[C@H]1CC[C@H](c2ccc(F)c(Cl)c2)CC1 (single isomer, unassigned) [Example D129a] : label 1

Please determine if O[C@@H](c1c(C2CC2)ccc2cncn12)[C@H]1CC[C@H](c2ccc(Oc3ccccc3)cc2)CC1 (single isomer, unassigned) [Example D120b] is below 100 nM in terms of EC50.
label 0

Please determine if OC(c1c(C2CC2)ccc2cncn12)C1CCC(c2cccc(F)c2)CC1 (centres unmarked) [Example D156] is below 100 nM in terms of EC50.
label 1

Please determine if OC(c1c(C2CC2)ccn2cncc12)C1CCC(c2ccc(OC(F)(F)F)cc2)CC1 (racemic) [Example C105] is below 100 nM in terms of EC50.
label 0

---

The entries below come with measured IC50 values attached.
# Assayed target: IDO1 (Homo sapiens, UniProt P14902)
# Method summary: IDO1 enzymatic assay
# Assay type: biochemical
# Set-up: His tag (N); made in house; host or cells: E. coli
# Condition context: read-out: Enzyme IC50 IDO1
Numeric only. Scale: nM

Lab note: measured IC50 of O[C@@H](c1c(C2CC2)ccn2cncc12)[C@H]1CC[C@H](c2ccc(F)cc2)CC1 (single isomer, unassigned) [Example C107b] was 5100

---

# Assayed target: IDO1 (Homo sapiens)
# Method summary: IDO1 enzymatic assay
# Format: biochemical
# Parameters: His tag (N); made in house; host or cells: E. coli
# Condition context: read-out: Enzyme IC50 IDO1
Measured endpoint: IC50 (nM)
Numeric only. Scale: nM

Use these answered entries as a reference point.
OC(c1c(C2CC2)ccc2cncn12)C1CCC(c2ccc3ncccc3c2)CC1 (stereo not shown) : 31
OC(c1c(C2CC2)ccn2cncc12)C1CCC(c2ccc3c(c2)OCO3)CC1 (stereo not shown) : 15
CN(C)C(=O)c1ccc([C@H]2CC[C@H]([C@@H](O)c3c(C4CC4)ccc4cncn34)CC2)cc1 (single isomer, unassigned) [Example D125b] : 1600
OC(c1c(C2CC2)ccn2cncc12)C1CCN(c2ccnc3ccccc23)CC1 (stereo not shown) : 160
OC(c1cc(C2CC2)cc2cncn12)C1CCC(c2ccc(Cl)cc2)CC1 (stereo not shown) : 270
CC(=O)c1ccc(C2CCC(C(O)c3c(C4CC4)ccc4cncn34)CC2)cc1 (stereo not shown) : 58

Lab note: measured IC50 of O[C@@H](c1c(C2CC2)ccc2cncn12)[C@H]1CC[C@H](c2ccnc3ccccc32)CC1 (single isomer, unassigned) [Example D140b] was 1800

---

# Assayed target: IDO1 (Homo sapiens)
# Method summary: Hela cell-based IDO1 assay
# Condition context: Hela cells
The entries below come with measured EC50 values attached.

Use these answered entries as a reference point.
O[C@@H](c1c(C2CC2)ccn2cncc12)[C@H]1CC[C@H](c2ccc(OC3COC3)cc2)CC1 (single isomer, unassigned) [Example C117b] : > 10 µM
Nc1ccc([C@H]2CC[C@H]([C@@H](O)c3c(C4CC4)ccc4cncn34)CC2)cc1 (single isomer, unassigned) [Example D122b] : > 10 µM

Lab note: measured EC50 of O[C@@H](c1c(C2CC2)ccn2cncc12)[C@H]1CC[C@H](c2ccc(F)c(Cl)c2)CC1 (single isomer, unassigned) [Example C132b] was > 10 µM

---

Notes on pIC50 obtained with TDO (Homo sapiens, UniProt P48775).
Sequence (P48775 whole entry): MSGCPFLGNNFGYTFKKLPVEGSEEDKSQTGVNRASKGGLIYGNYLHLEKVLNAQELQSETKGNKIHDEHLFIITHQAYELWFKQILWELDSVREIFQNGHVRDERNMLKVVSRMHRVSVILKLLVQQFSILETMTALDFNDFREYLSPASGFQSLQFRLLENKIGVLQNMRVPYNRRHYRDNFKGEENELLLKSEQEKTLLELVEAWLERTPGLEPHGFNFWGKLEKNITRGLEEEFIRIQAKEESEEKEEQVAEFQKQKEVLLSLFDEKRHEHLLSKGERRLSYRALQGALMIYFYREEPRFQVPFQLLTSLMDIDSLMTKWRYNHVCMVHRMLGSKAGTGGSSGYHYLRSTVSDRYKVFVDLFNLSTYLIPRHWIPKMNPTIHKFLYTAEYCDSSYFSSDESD
// pIC50 here means minus log10 of the molar concentration (mol/L)

Use these answered entries as a reference point.
O[C@H](c1c(C2CC2)ccc2cncn12)[C@H]1CC[C@H](c2cccc3ncccc32)CC1 (single isomer, unassigned) [Example D141a] : 5.21
O[C@H](c1c(C2CC2)ccc2cncn12)[C@H]1CC[C@H](c2cccc(Cl)c2)CC1 (single isomer, unassigned) [Example D116a] : 5.03

Lab note: measured pIC50 of `CC(=O)c1ccc([C@H]2CC[C@H]([C@H](O)c3c(C4CC4)ccn4cncc34)CC2)cc1` was 5.21

Lab note: measured pIC50 of O[C@H](c1c(C2CC2)ccn2cncc12)[C@H]1CC[C@H](c2ccc(C(F)(F)F)nc2)CC1 (single isomer, unassigned) [Example C120a] was 5.13

Lab note: measured pIC50 of OC(c1c(C2CC2)ccc2cncn12)[C@H]1CC[C@H](c2ccc3ccsc3c2)CC1 (single isomer, unassigned) [Example D134a] was 5.21

Lab note: measured pIC50 of O[C@H](c1c(C2CC2)ccc2cncn12)[C@H]1CC[C@H](c2ccc3sccc3c2)CC1 (single isomer, unassigned) [Example D133a] was 5.17

Lab note: measured pIC50 of O[C@H](c1c(C2CC2)ccc2cncn12)[C@H]1CC[C@H](c2ccccc2)CC1 (single isomer, unassigned) [Example D101a] was 5.04

Lab note: measured pIC50 of O[C@H](c1c(C2CC2)ccn2cncc12)[C@H]1CC[C@H](c2ccccc2F)CC1 (single isomer, unassigned) [Example C108a] was 5.29

Lab note: measured pIC50 of COc1ccccc1[C@H]1CC[C@H]([C@H](O)c2c(C3CC3)ccn3cncc23)CC1 (single isomer, unassigned) [Example C113a] was 5.24

FYI, the data here is from patent US10882856B2.
